The entries below pair compounds with IC50 values for ROCK2 (Homo sapiens), as found in several publications.
Entries are grouped by IC50 into these classes: bottom bin = under 30 nM, middle bin = from 30 nM up to 80 nM, top bin = 80 nM and over

chemical_string=CCCOC(=O)N1CCC2(CC1)CN(c1ccc(-c3cn[nH]c3)cc1)C(=O)N2Cc1cccc(OC)c1 assigned_label="bottom bin"
chemical_string=Cc1cc(C(=O)NCc2cccc(C(=O)NC[C@H]3CCCN3)c2)ccc1-c1cn[nH]c1 assigned_label="bottom bin"
chemical_string=O=C(c1cc2ccc(-c3ncc(F)c(Nc4ccc(-c5cn[nH]c5)cc4)n3)cc2[nH]1)N1CC(F)(F)C1 assigned_label="bottom bin"
chemical_string=COc1cc(N2CCC3(CCN(C(=O)C4CCN(c5ccncc5)CC4)CC3)C2=O)ccc1-c1cn[nH]c1 assigned_label="top bin"
chemical_string=COc1cc(N2CCC3(CCN(C(=O)c4ccc(-c5noc(C(C)C)n5)cc4)CC3)C2=O)ccc1-c1cn[nH]c1 assigned_label="middle bin"
chemical_string=Cn1ccnc1C(=O)Nc1ccc(-c2n[nH]c(=O)c3ccccc23)cc1 assigned_label="top bin"
chemical_string=COc1cc(N2CCC3(CCN(C(=O)c4ccc(Oc5ccccc5)cc4)CC3)C2=O)ccc1-c1cn[nH]c1 assigned_label="middle bin"
chemical_string=Cc1nn(C)cc1-c1ccn2nc(NC(=O)Cc3ccc(Oc4ncccc4C(N)=O)c(F)c3)nc2c1 assigned_label="bottom bin"
chemical_string=NC(=O)c1cccnc1Oc1ccc(CC(=O)Nc2nc(-c3cccc(OC(F)(F)F)c3)cs2)cc1 assigned_label="top bin"
chemical_string=O=C(N1Cc2ccc(-c3nccc(Nc4ccc(-c5cn[nH]c5)cc4)n3)cc2C1)N1CC(F)(F)C1 assigned_label="middle bin"
